Provide the recorded TGI for the entries that follow.
Tested on: OVCAR-5 ovarian
PROTOCOL: NCI tumour cell line growth inhibition, 48 h
Give bare numbers, in µM.

Each compound below has a reported value. Please supply its TGI.
1. CCCC/C=C1\CCC(CN2CCOCC2)C1=O (centres undefined)
2. Cn1c(-c2c(N)n(Cc3ccc(Cl)cc3)c3nc(C#N)c(C#N)nc23)nc2ccccc21
3. COC(=O)/C=C\C1C(C(=O)OC)C2(C(=O)OC)CCC1(C(=O)OC)N2 (centres undefined)

Solution:
1: 32.9; 2: 16; 3: 34.5

Exercise: GET /values?readout=TGI&item= CC(=O)NC1C(OCc2ccccc2)OC(CO)C(O)C1OCC(=O)NC(C)C(=O)NC(CCC(=O)OCCNC(=O)c1cccc2cc3ccccc3nc12)C(N)=O (centres undefined)
Solution: 69.3
